The values you see were collected from patent US6919086B1.

Biological target: IgE antibodies of the individual allergic patient serum II/3
Test: EAST inhibition, individual serum II/3
readout: pIC50
The quantity pIC50 is defined as the negative base-10 logarithm of the molar concentration.

Exam item: Which value of pIC50 has been reported for rPhl p 5b point mutant PM1 (N32D, D49L, K50A) (protein) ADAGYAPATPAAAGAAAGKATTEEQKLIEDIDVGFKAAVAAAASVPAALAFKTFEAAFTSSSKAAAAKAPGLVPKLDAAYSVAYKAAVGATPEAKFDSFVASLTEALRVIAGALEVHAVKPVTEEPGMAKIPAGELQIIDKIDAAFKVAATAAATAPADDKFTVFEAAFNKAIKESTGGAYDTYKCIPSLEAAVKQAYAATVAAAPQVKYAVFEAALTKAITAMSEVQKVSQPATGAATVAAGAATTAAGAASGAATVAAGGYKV in the records?
Marked response: 7.72

Exam item: Next entry: rPhl p 5b deletion mutant DM3 (deletion A154-T177, A220T) (protein) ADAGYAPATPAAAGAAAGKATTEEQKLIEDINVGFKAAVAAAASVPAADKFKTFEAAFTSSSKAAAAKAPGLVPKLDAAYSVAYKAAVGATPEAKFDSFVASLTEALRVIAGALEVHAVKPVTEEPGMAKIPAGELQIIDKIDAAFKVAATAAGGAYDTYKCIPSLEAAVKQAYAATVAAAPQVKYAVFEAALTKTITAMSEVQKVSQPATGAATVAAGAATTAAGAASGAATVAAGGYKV
Marked response: 1.49

Exam item: Next entry: rPhl p 5b deletion mutant DM1 (deletion K50-P132, D49L) (protein) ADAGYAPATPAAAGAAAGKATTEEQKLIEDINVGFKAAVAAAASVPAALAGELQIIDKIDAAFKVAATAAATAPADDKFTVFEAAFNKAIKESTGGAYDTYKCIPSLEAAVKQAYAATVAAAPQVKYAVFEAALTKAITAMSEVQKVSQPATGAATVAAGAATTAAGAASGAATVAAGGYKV
Marked response: 7.77
